Source of measurements: ChEMBL document CHEMBL1201862

experimental-system: Cytochrome P450 2D6 (Homo sapiens)
Sequence (P10635 whole entry): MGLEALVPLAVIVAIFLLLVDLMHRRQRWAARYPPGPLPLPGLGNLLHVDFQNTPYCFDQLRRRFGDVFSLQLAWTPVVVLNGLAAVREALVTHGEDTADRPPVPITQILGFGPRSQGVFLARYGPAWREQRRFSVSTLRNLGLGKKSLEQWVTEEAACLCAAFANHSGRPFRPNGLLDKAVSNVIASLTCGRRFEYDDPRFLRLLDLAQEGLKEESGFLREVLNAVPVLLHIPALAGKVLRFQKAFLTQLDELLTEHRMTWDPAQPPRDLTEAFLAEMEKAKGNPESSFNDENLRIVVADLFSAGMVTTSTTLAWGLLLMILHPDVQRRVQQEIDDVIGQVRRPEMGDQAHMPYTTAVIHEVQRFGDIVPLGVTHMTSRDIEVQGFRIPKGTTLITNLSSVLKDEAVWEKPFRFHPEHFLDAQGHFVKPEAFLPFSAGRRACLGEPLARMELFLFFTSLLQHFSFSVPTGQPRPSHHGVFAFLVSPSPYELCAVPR
test-readout: AC50

Entry Ic1cncc(OC[C@@H]2CCN2)c1 , system Cytochrome P450 2D6 (Homo sapiens): what AC50 was measured?;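 further: CYP2D6 member of a cytochrome P450 panel assay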
39.8 µM (inconclusive)

Again, but for COc1cccc(Cn2c(=O)cnc3cnc(Nc4cccc(OC)c4)nc32)c1
39.8 µM (inconclusive)

Again, but for Cn1c(=O)c2c(-c3cccc(F)c3)c3c(nc2n(C)c1=O)-c1ccccc1C3O (stereo unspecified)
79.4 µM (inconclusive)

Again, but for Cc1ccc(C)c(-c2cc(C(=O)NCc3cccs3)c3ccccc3n2)c1
14.1 µM (inconclusive)

Again, but for COc1ccc(CNc2cc(-c3cccnc3)ncn2)c(OC)c1
39.8 µM (inconclusive)

Again, but for NCCNc1ncnc2ccc(Cl)cc12
3.16 µM (inconclusive)

Again, but for O=C(c1cccc(F)c1)N1CCC2(CCN(Cc3ccncc3)CC2)CC1
12.6 µM (inconclusive)

Again, but for Cn1cc(-c2nnc(-c3ccccc3)o2)c2ccccc21
3.55 µM (inconclusive)

Again, but for COc1ccc(C[C@H]2c3cc(OC)c(OC)cc3CCN2C)cc1OC
6.31 µM (inconclusive)

Again, but for C=CCN1C(=O)NC(=O)/C(=C(/CC)NC2CC2)C1=O
1.12 µM (inconclusive)

Again, but for O=C(NCc1ccc(F)cc1)C(c1ccncc1)N(C(=O)c1csnn1)C1CC1 (stereo unspecified)
11.2 µM (inconclusive)
